Assay: Proof-of-concept dog PK study, plasma levels of GEM-IB and metabolites by HPLC-MS/MS
Format: in vivo, beagle dogs
Conditions: beagle, iv, after GEM-IB 5 mg/kg 30 min i.v. infusion, read-out: Vdss
readout-name: Vd (L/kg)
// units = L/kg; emit number, no label

stdin: Sample CCCCCN(C)CCC(O)(P(=O)(O)O)P(=O)(O)OP(=O)(O)OC[C@H]1O[C@@H](n2ccc(N)nc2=O)C(F)(F)[C@@H]1O (stereo partly shown) — what was its Vd?
stdout: 1.93

* * *

Assay: Stability in mouse plasma (accelerated, freeze-thaw, frozen PK samples)
Type: in vitro ADME
Conditions: mouse plasma, 24 hours RT
Criterion: %-ACC (percent mean accuracy vs nominal) strictly less than 90%. Met: fulfilled. Not met: not fulfilled.

stdin: Problem: For the compound CCCCCN(C)CCC(O)(P(=O)(O)O)P(=O)(O)OP(=O)(O)OC[C@H]1O[C@@H](n2ccc(N)nc2=O)C(F)(F)[C@@H]1O (stereo partly drawn) , is %-ACC (percent mean accuracy vs nominal) under 90%?
stdout: fulfilled

stdin: Check "O=c1ccn([C@@H]2O[C@H](COP(=O)(O)O)[C@@H](O)C2(F)F)c(=O)[nH]1" too.
stdout: fulfilled

stdin: Check "O=c1ccn([C@@H]2O[C@H](CO)[C@@H](O)C2(F)F)c(=O)[nH]1" too.
stdout: fulfilled

stdin: Entry CCCCCN(C)CCC(O)(P(=O)(O)O)P(=O)(O)O [IB, ibandronate] please
stdout: not fulfilled
